# tgt: T1, TBD-1 wt
# T1 construct: Fab; the heavy chain entry is VH-CH1; also called wild-type anti-TROP2 Fab (hRS7); TROP2 Fab
# test: competition ELISA, peptide vs Fab binding to captured biotin-TROP2
Where no end group is shown, it is not given here.
For each record, write down the corresponding pIC50.
Give bare numbers, as −log10 of the molar value.

1. VDFCGLYHWPICYQVD (cysteine pairing not given here; also: biotinylated, site not given here) [Peptide-39]; 6.34
2. PDFCYMYNWPVCVT (cysteine pairing not given here; also: biotinylated, site not given here) [Peptide-33]; 5.25
3. VDFCYLYSWPICTK (cysteine pairing not given here; also: biotinylated, site not given here) [Peptide-40]; 5.44

Moving on to the next binder.
Entry VDFCKIYSWPVCHQ (cysteine pairing not given here; also: biotinylated (site not given here)) [Peptide-25] : reported pIC50 = ? 5.52
